# IC50 values compiled below
- Study Target: mTOR (human recombinant aa mTOR 1360-2549) (Homo sapiens (Human), UniProt P42345)
- Sequence (P42345 1360-2549): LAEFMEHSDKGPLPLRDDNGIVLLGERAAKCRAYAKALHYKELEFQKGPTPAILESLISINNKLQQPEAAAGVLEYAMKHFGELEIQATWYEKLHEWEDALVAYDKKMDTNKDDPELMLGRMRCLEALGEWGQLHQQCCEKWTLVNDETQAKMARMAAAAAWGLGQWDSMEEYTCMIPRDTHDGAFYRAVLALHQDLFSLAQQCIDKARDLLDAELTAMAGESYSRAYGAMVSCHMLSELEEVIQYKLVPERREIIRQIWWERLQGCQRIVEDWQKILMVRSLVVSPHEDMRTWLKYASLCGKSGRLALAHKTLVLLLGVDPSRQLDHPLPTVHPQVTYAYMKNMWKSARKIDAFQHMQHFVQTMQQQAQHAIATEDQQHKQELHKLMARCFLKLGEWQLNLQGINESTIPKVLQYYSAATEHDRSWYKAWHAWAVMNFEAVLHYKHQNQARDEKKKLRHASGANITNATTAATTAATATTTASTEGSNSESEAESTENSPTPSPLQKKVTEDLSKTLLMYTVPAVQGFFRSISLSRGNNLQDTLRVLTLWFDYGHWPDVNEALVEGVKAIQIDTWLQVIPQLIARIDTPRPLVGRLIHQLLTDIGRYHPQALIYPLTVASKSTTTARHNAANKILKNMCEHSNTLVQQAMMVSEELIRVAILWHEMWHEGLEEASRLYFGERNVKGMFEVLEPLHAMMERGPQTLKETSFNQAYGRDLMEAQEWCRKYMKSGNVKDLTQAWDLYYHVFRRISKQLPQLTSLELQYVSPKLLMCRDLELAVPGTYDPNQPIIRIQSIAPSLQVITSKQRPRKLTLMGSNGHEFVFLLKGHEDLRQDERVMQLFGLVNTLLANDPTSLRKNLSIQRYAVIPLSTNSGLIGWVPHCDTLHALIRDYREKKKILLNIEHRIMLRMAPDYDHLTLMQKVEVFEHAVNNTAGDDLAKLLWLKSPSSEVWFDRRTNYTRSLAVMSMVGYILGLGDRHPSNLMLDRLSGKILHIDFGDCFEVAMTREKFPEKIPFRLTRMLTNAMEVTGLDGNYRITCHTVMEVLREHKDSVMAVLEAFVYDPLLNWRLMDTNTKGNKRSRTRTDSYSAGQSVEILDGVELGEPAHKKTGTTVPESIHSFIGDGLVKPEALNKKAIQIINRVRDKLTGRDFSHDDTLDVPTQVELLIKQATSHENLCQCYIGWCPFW
- Test Details: mTOR enzymatic test by TR-FRET (phosphorylation of GFP-4EBP1)
Entry rule: numbers only, all in nM.

INSERT INTO results (line_notation, reported_result) VALUES
  ('CCNC(=O)Nc1ccc(-c2nc(N3C[C@@H](C)O[C@@H](C)C3)nc3c2C(=O)N(CC)CC(C)(C)CO3)cc1', 7770),
  ('CCN1CC(C)(C)Oc2nc(N3CC4CCC(C3)O4)nc(-c3ccc(NC(=O)NC4CC4)c(F)c3)c2C1=O', 33),
  ('CNC(=O)Nc1ccc(-c2nc(N3CCOC[C@@H]3C)nc3c2C(=O)N(CCOC)CC(C)(C)O3)cc1F', 36);

Prompt line: Return IC50 (reported value) for this molecule: CCN1CC(C)(C)Oc2nc(N3CC4CCC(C3)O4)nc(-c3ccc(NC(=O)Nc4cnc(N(C)C)cn4)c(F)c3)c2C1=O
Response line: 67

Prompt line: Please look at this molecule and report its IC50: CCN1CC(C)(C)Oc2nc(N3CC4CCC(C3)O4)nc(-c3ccc(NC(=O)Nc4cccc(C(F)(F)F)c4)cc3)c2C1=O
Response line: 182
